assay: Quantitative High-Throughput drug screen in 47 multiple myeloma cell lines against the NCATS MIPE library collection: U266_ATCC cell viability assay (AID 1919864); details: U266 myeloma viability, CellTiter-Glo ATP luminescence, 48 h; series mostly up to 45.8 µM; note: nearly all actives have a fitted effect of over 35% in size; note: potency is the fitted concentration of half-maximal effect
Results filed as inconclusive are left out. Active and inactive are the calls of the source. Calls come from the whole dose curve; as a rule, active = well fitted cell-killing curve with a large enough effect; inconclusive = small, poorly fitted or top-dose-only effect, or effect the other way; inactive = no such curve, though single readings can be large or run the other way.
PARAMETER_MEASURED: Potency

INSERT INTO assay_data (compound, parameter_measured, readout_value) VALUES
  ('COC[C@H]1OC(=O)c2coc3c2[C@@]1(C)C1=C(C3=O)[C@@H]2CC[C@H](O)[C@@]2(C)C[C@@H]1OC(C)=O', 'Potency', '16.6 µM (active)'),
  ('Cc1c(C(=O)Nc2cccc(C(F)(F)F)c2)cc(-c2ccccc2)n1CCCN1CCOCC1', 'Potency', '16.6 µM (active)'),
  ('CN1CCN(c2ccc([N+](=O)[O-])c3no[n+]([O-])c23)CC1', 'Potency', '18.7 µM (active)'),
  ('C[C@@H]1O[C@@H](O[C@@H]2C=C3CC[C@@H]4[C@@H](CC[C@]5(C)[C@H](c6ccc(=O)oc6)CC[C@@]45O)[C@@]3(C)CC2)[C@H](O)[C@H](O)[C@H]1O', 'Potency', '0.0093 µM (active)'),
  ('O=C(Oc1ccc([N+](=O)[O-])cc1)N1CCN(Cc2cccc(Oc3ccccc3)c2)CC1', 'Potency', '14.8 µM (active)'),
  ('c1ccc(CCCN2CCN(CCOC(c3ccccc3)c3ccccc3)CC2)cc1', 'Potency', '23.5 µM (active)');

Hi there! I need Potency for each item below, if you can.
1. c1ccc2c(CN3CCNCC3)cccc2c1
2. C=CCON=C(C[C@H]1O[C@@H]2O[C@]3(C)CC[C@@H]4[C@H](C)CC[C@@H]([C@H]1C)[C@@]24OO3)[C@H]1O[C@@H]2O[C@]3(C)CC[C@H]4[C@H](C)CC[C@@H]([C@@H]1C)[C@@]24OO3
3. CCNC(=O)CC1N=C(c2ccc(Cl)cc2)c2cc(OC)ccc2-n2c(C)nnc21 (configuration not stated)
4. O=c1[nH]c2ccc(Cl)cc2c(N[C@@H]2CN3CCC2CC3)c1-c1nc2ccccc2[nH]1
5. O=c1cccc2n1CC1CNC[C@H]2C1
6. C[C@H]([C@H](O)CCC(C)(C)O)[C@H]1CC[C@@]2(O)C3=CC(=O)[C@@H]4C[C@@H](O)[C@@H](O)C[C@]4(C)[C@@H]3CC[C@]12C
7. CCCC[N+]1(C)[C@H]2CC(OC(=O)[C@H](CO)c3ccccc3)C[C@H]1[C@H]1O[C@H]12 (some centres not stated)
8. CCc1c(C(=O)C(N)=O)c2c(OCC(=O)O)cccc2n1Cc1ccccc1

Result string:
["inactive", "0.332 µM (active)", "18.7 µM (active)", "5.9 µM (active)", "20.9 µM (active)", "inactive", "inactive", "inactive"]

Below is a list of compounds. For each, state its recorded Potency.
1. CCOP(=O)(OCC)C(C)NC(=O)N(CCCl)N=O (configuration not stated)
2. O=C(N[C@H]1CN2CCC1CC2)c1ccc(Cl)cc1
3. CC(=O)O[C@@]12CO[C@H]1C[C@H](O)[C@@]1(C)C(=O)[C@H](O)C3=C(C)[C@@H](O)C[C@@](O)([C@@H](OC(=O)c4ccccc4)[C@@H]21)C3(C)C

Result string:
inactive
4.18 µM (active)
inactive
